Entries annotated with measured ALK5 Span
# subject_of_test: ALK5 (Homo sapiens)
# Construct: purchased Life technology (Fredrick, Md.) and/or CARNA BIOSCIENCES Inc. (Kobe, Japan)
# Sequence (P36897 34-503): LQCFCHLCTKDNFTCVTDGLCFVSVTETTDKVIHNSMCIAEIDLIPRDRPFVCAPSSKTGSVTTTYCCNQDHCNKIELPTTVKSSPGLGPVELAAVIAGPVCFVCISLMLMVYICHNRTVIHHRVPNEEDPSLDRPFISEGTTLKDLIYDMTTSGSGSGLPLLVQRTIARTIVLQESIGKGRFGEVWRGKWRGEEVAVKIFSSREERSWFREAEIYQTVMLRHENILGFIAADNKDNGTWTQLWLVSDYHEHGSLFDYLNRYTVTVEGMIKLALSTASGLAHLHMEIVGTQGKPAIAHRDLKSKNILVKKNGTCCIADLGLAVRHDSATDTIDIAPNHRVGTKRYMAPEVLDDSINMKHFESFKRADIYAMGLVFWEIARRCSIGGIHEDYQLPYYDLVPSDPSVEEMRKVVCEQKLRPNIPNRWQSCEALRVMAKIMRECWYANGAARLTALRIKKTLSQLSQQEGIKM
# assay_name: TR-FRET enzymatic assay, ALK5 kinase, 1536-well
# Format: biochemical
# experimental_context: span of the concentration-response curve

Worked examples follow.
Cc1cc(-c2cnn3cc(N4CCC(N5CCN(C)CC5)CC4)cnc23)c2ccccc2n1 ... 100.3
Cc1cc(-c2cnn3cc(N4CCC(N5CCOCC5)CC4)cnc23)c2ccccc2n1 ... 102.1
Cc1cc(-c2cnn3cc(N4CCC(N5CCNCC5)CC4)cnc23)c2ccccc2n1 ... 105.678

Turning now to a further molecule:
Lab note: measured ALK5 Span of COc1cc2c(-c3cnn4cc(N5CCC(N6CCN(C)CC6)CC5)cnc34)ccnc2cc1F was 96

----------
# subject_of_test: ALK2 (Mus musculus)
# Construct: endogenous in cells
# Sequence (P37172 21-509): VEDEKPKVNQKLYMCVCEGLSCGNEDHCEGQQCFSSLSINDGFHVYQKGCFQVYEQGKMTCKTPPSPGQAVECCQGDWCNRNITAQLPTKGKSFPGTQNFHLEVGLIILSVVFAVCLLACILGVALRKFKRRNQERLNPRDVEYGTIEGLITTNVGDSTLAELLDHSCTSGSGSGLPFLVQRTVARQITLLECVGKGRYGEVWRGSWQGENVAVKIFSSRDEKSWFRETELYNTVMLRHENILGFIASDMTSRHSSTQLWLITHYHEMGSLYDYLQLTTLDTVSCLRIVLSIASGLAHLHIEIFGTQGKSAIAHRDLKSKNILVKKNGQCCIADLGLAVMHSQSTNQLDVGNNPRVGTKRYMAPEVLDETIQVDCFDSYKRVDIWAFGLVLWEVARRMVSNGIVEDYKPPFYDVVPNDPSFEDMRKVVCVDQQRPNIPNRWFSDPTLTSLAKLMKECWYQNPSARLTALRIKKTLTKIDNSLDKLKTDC
# assay_name: Luciferase reporter gene assay for ALK2 activity (C2C12 BRE-Luc SMAD1/5/8 reporter, BMP6 agonist)
# experimental_context: BMP6 50 ng/mL
readout_label: log10 IC50 (log10 of the value in µM)
Values below are the log10 of the recorded IC50, with µM as the unit.

Below: 5 molecules and their reported log10 IC50.
COc1cc2c(-c3cnn4cc(N5CCC(C(C)(C)N)CC5)cnc34)ccnc2cc1F [Compound 211] ... -1.29
COc1cc2c(-c3cnn4cc(N5CCC(N6CCNCC6)CC5)cnc34)ccnc2cc1F [Compound 39] ... -1.96
NC(=O)c1ccc(-c2cnn3cc(N4CCN(C5CCNCC5)CC4)cnc23)c2ccccc12 [Compound 3] ... -1.89
COc1cc(-c2cnn3cc(N4CC(N5CCN(C)CC5)C4)cnc23)cc(OC)c1OC [Compound 309] ... -1.55
COc1cc2c(-c3cnn4cc(N5CCN(c6ccnc(C)n6)CC5)cnc34)ccnc2cc1F [Compound 203] ... -1.59

For this molecule ( COc1cc2c(-c3cnn4cc(N5CCC(N6CCN(C)CC6C)CC5)cnc34)ccnc2cc1F (centres unmarked) [Compound 58] ), measured log10 IC50 is -0.42

Noted for COc1cc2c(-c3cnn4cc(N5CCC(N6CCS(=O)(=O)CC6)CC5)cnc34)ccnc2cc1F [Compound 46] : its log10 IC50 reads -0.97

Entry under test: CN1CCN(C2CCN(c3cnc4c(-c5ccnc6ccc(Cl)c(F)c56)cnn4c3)CC2)CC1 [Compound 267] . Its log10 IC50 was -0.79

Value of measured log10 IC50 for the entry Cc1cc2nccc(-c3cnn4cc(N5CCC(N6CCN(C)CC6)CC5)cnc34)c2cc1C [Compound 233] : -1.15

# log10 IC50 (molecule: COc1cc2c(-c3cnn4cc(N5CCC(N6CCN(C)C(=O)C6)CC5)cnc34)ccnc2cc1F [Compound 323] ) is -0.71

Query COc1ccc2nccc(-c3cnn4cc(N5CCC(N6CCN(C)CC6)CC5)cnc34)c2n1 [Compound 60] yields log10 IC50 of -1.38

In plain terms, COc1cc2c(-c3cnn4cc(N5CCC(N6C[C@@H]7C[C@H]6CN7C)CC5)cnc34)ccnc2cc1F [Compound 215] has a documented log10 IC50 of -1.47

The reported log10 IC50 of the molecule Cc1ccc2nccc(-c3cnn4cc(N5CCC(N6CCN(C)CC6)CC5)cnc34)c2c1 [Compound 185] was -1.66

// field: log10 IC50; key: CN1CCN(C2CCN(c3cnc4c(-c5ccnc6cc(F)c(O)cc56)cnn4c3)CC2)CC1 [Compound 242] ; value = -1.43

----------
# Tested on: BMP6
# assay_name: Cell assay HTRF BMP6 (Table 15)
# Assay type: cell-based
Examples of compounds with documented IC50 follow.
All answers are understood in nM, so give the number only.

Examples with their reported IC50 follow.
c1ccc2c(-c3cnn4cc(N5CCN(C6CCNCC6)CC5)cnc34)ccnc2c1 [Compound 79] ... 97.4
Cc1cc(-c2cnn3cc(N4CCC(N5CCN(C)CC5)CC4)cnc23)c2ccccc2n1 [Compound 8] ... 270
c1ccc2c(-c3cnn4cc(N5CCNCC5)cnc34)ccnc2c1 [Compound 80] ... 250

IC50 for c1ccc2c(-c3cnn4cc(-c5ccc(N6CCNCC6)cc5)cnc34)ccnc2c1 [TRND00262637-13] is 69

----------
# subject_of_test: ALK2 (Mus musculus, UniProt P37172)
# Construct: endogenous in cells
# assay_name: Luciferase reporter gene assay for ALK2 activity (C2C12 BRE-Luc SMAD1/5/8 reporter, BMP6 agonist)
# experimental_context: BMP6 50 ng/mL
readout_label: IC50 (nM)
// return numeric value only (unit: nM, not printed)

COc1cc(-c2cnn3cc(N4CCC(N5CCN(C)CC5)CC4)cnc23)ccn1 ... 153

According to the records, this compound COc1ccc2nccc(-c3cnn4cc(N5CCC(N6CCN(C)CC6)CC5)cnc34)c2c1 displays IC50 of 8

The compound COc1cc2c(-c3cnn4cc(N5CCOCC5)cnc34)ccnc2cc1F showed IC50 equal to 89

Notebook: c1ccc2c(-c3cnn4cc(N5CCNCC5)cnc34)ccnc2c1 , IC50 read as 25

----------
# Tested on: TGFb
# assay_name: Cell assay HTRF TGFb (Table 15)
# Assay type: cell-based
# experimental_context: read-out: HRTF TGFb (IC50)
Each entry below carries its reported pIC50.
pIC50 is defined as minus the log10 of a concentration measured in mol/L.

// solved cases for pIC50 follow
Cc1cc(-c2cnn3cc(N4CCC(N5CCN(C)CC5)CC4)cnc23)c2ccccc2n1 ... 5.69
c1ccc2c(-c3cnn4cc(-c5ccc(N6CCNCC6)cc5)cnc34)ccnc2c1 ... 5.03
c1ccc2c(-c3cnn4cc(N5CCN(C6CCNCC6)CC5)cnc34)ccnc2c1 ... 5.34

Now let's try a different one.
c1ccc2c(-c3cnn4cc(N5CCNCC5)cnc34)ccnc2c1 yielded pIC50 of 5.24

----------
# subject_of_test: ALK2 (Mus musculus)
# Construct: endogenous in cells; host or cells: C2C12-BRE (BRE-Luc reporter line, G418 selection)
# assay_name: Luciferase reporter gene assay for ALK2 activity (C2C12 BRE-Luc SMAD1/5/8 reporter, BMP6 agonist)
# Type: cell-based
# experimental_context: BMP6 50 ng/mL
List of pIC50 values.
In plain terms, pIC50 is the concentration in mol/L turned into minus its base-10 logarithm.

Consider CN1CCN(C2CCN(c3cnc4c(-c5ccnc6cc(F)ccc56)cnn4c3)CC2)CC1 . Its measured pIC50 is 8.00

Form: molecule = Cc1cc(-c2cnn3cc(N4CCC(N5CCN(C)CC5)CC4)cnc23)c2cccc(C(F)(F)F)c2n1 ; pIC50 = 7.01

Summary for this molecule, CN1CCN(C2CCN(c3cnc4c(-c5ccnc6ncccc56)cnn4c3)CC2)CC1 : pIC50 is 7.72

Just so you know, measured pIC50 for Cc1cc(-c2cnn3cc(N4CCC(N5CCN(C)CC5)CC4)cnc23)c2cc(F)ccc2n1 came out at 6.88

Reported pIC50 of Cc1cc(-c2cnn3cc(N4CCC(N5CCN(C)CC5)CC4)cnc23)c2ccccc2n1 : 8.30

----------
# subject_of_test: ALK2 (Mus musculus, UniProt P37172)
# Construct: endogenous in cells; host or cells: C2C12-BRE (BRE-Luc reporter line, G418 selection)
# Sequence (P37172 21-509): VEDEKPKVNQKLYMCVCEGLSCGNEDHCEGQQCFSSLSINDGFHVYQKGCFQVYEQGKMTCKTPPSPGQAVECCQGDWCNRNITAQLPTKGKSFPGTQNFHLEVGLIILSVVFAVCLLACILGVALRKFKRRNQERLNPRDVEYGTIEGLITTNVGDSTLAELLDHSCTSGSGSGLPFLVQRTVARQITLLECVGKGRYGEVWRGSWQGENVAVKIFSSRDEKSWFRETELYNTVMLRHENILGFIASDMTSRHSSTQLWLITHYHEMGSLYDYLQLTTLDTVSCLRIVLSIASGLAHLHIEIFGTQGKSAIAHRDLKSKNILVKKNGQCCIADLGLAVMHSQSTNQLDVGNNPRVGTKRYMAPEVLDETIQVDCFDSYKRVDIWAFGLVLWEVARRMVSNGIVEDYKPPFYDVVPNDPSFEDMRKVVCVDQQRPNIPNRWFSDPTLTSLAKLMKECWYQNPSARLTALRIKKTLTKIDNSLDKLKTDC
# assay_name: Luciferase reporter gene assay for ALK2 activity (C2C12 BRE-Luc SMAD1/5/8 reporter, BMP6 agonist)
# Assay type: cell-based
# experimental_context: BMP6 50 ng/mL
readout_label: IC50 (nM)
// units = nM; emit number, no label

The examples below pair each entry with its known result.
Cc1cc2nccc(-c3cnn4cc(N5CCC(N6CCN(C)CC6)CC5)cnc34)c2s1 ... 18
CN1CCN(C2CCN(c3cnc4c(-c5ccnc6ccc(N(C)C)cc56)cnn4c3)CC2)CC1 ... 26
CN1CCN(C2CCN(c3cnc4c(-c5ccnc6cn[nH]c56)cnn4c3)CC2)CC1 ... 311
Cn1cc(-c2cnn3cc(N4CCC(N5CCOCC5)CC4)cnc23)c2ccccc2c1=O ... 25

For reference, reported IC50 for Cc1cc(-c2cnn3cc(N4CCN(C5CCOCC5)CC4)cnc23)c2ccccc2n1 stands at 261

The compound listed as COc1cc2c(-c3cnc4cc(N5CCC(N6CCN(C)CC6)CC5)ccn34)ccnc2cc1F shows IC50 equal to 372

Documented IC50 of COc1cc2c(-c3cnn4cc(N5C[C@@H]6C(N(C)C)[C@@H]6C5)cnc34)ccnc2cc1F (stereo partly shown) : 21
